Hello, the source for this data is patent US20260242735A1, in case you need it.

# target.of.assay: human CD33 P319A (human, UniProt P20138 18-364)
# Sequence (P20138 18-364 P319A limits assumed): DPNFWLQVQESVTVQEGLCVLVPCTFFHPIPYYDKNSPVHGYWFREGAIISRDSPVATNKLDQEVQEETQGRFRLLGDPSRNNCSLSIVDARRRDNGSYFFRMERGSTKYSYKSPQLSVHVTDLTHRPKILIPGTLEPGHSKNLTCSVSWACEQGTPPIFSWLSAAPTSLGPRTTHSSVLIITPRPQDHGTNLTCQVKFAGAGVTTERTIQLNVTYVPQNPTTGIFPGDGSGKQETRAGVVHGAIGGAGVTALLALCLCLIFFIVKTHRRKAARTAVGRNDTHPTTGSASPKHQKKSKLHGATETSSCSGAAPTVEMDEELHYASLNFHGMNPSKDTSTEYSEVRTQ
# method.summary: flow cytometry, alanine scan
measurement.kind: Mean % WT Binding

Query: Tell me the measured Mean % WT Binding of Refmab #1 (antibody, V domains shown, The alanine scan used IgG or Fab; also called hP67.6) VH: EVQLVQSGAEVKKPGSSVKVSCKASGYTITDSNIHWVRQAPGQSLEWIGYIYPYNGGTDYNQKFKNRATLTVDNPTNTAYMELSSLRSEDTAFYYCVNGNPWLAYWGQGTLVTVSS VL: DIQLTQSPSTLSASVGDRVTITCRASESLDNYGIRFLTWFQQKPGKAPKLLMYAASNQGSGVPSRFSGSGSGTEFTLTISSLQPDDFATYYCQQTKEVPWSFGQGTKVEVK , please.
Result: 83.9 % of WT
